meta.source: patent US20060281899A1

Listing of recorded Reversibility of biotin binding by entry.
- TEST PROTOCOL: IASyS reversibility of biotin binding of avidin and AVRs
- ASSAY CONDITIONS: biotin cuvette, after addition of free biotin (0.17 mg/ml)
Please don't drop the unit; write it after the number.

Noted for AVR3: Recombinant chicken avidin-related protein 3, produced in Sf9 insect cells (protein, UniProt P56733 25-150, looked up) Avidin-related protein 3: ARKCSLTGKWTNNLGSIMTIRAVNSRGEFAGTYLTAVADNPGNIKLSPLLGIQHKRACQPTFGFTVHWNFSESTSVFVGQCFIDRSGKEVLKTKWLQRLAVDDISDDWKATRVGYNNFTRQRTVEE : its Reversibility of biotin binding reads 3 ± 2%

Noted for AVR4/5: Recombinant chicken avidin-related protein 4/5 (AVR4 and AVR5 identical in coding sequence) (protein, UniProt P56734 25-150, looked up) Avidin-related protein 4/5: ARKCSLTGKWTNNLGSIMTIRAVNSRGEFTGTYLTAVADNPGNITLSPLLGIQHKRASQPTFGFTVHWNFSESTTVFTGQCFIDRNGKEVLKTMWLLRSSVNDISYDWKATRVGYNNFTRLCTVEE : its Reversibility of biotin binding reads 2 ± 2%

Noted for AVR7: Recombinant chicken avidin-related protein 7, produced in Sf9 insect cells (protein, UniProt P56736 25-150, looked up) Avidin-related protein 7: ARKCSLTGEWDNNLGSNMTIGAVNDNGEFNGTYITAVADNPGNIKLSPLLGIQHKRACQPTFGFTVHWNFSESTSVFVGQCFIDRSGKEVLKTKWLQRLAVDDISDDWKATRVGYNNFTRQRTVEE : its Reversibility of biotin binding reads 3 ± 3%

Next up:
Noted for AVR6: Recombinant chicken avidin-related protein 6, produced in Sf9 insect cells (protein, UniProt P56735 25-150, looked up) Avidin-related protein 6: ARKCSLTGEWDNNLGSIMTIGAVNDNGEFNGTYITAVADNPGNIKLSPLLGIQHKRACQPTFGFTVHWNFSESTSVFVGQCFVDRSGKEVLKTKWLQRLAVDDISDDWKATRVGYNNFTRQRTVEE : its Reversibility of biotin binding reads 5 ± 3%
